Hi there, I'd appreciate the recorded PBM E-score for every entry that follows.
Target: Yer064c (UniProt P40041)
Sequence: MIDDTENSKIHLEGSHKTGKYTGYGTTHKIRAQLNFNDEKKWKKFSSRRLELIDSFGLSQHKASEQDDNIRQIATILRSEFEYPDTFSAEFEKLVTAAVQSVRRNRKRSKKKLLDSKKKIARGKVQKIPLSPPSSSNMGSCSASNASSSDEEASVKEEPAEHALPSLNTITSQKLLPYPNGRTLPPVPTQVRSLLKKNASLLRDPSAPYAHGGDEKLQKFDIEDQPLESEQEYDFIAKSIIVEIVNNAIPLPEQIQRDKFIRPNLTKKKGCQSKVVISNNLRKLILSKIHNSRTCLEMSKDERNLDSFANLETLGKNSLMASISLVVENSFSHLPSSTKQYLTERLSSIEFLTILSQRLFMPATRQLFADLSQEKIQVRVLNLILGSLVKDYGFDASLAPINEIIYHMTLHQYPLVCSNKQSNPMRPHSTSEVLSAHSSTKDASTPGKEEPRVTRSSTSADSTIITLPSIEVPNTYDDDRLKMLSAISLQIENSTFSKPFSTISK
Assay: PBM E-score (8-mer binding enrichment) (E-score (-0.5 to 0.5)); higher = stronger / more preferred TF binding
Conditions: protein concentration: 200 nM; construct: GST-full length
Over roughly 33,000 sequences, “E-score (-0.5 to 0.5)” has its median near -0.036; the highest 2% begin near 0.37. The entries come from a sample that favours the highest values as a whole.
No unit in the answer, only the number.

Q. Notebook: pull reported PBM E-score for Yer064c (UniProt P40041), entry CGAATCCG
A. 0.0437

Q. Notebook: pull reported PBM E-score for Yer064c (UniProt P40041), entry GACTAGGA
A. 0.376

Q. Notebook: pull reported PBM E-score for Yer064c (UniProt P40041), entry ACCAACGA
A. -0.0117

Q. Notebook: pull reported PBM E-score for Yer064c (UniProt P40041), entry CTATCCGC
A. 0.00533

Q. Notebook: pull reported PBM E-score for Yer064c (UniProt P40041), entry ACTAACCG
A. 0.163

Q. Notebook: pull reported PBM E-score for Yer064c (UniProt P40041), entry AGAGAGTA
A. 0.121

Q. Notebook: pull reported PBM E-score for Yer064c (UniProt P40041), entry GGTCATGA
A. 0.255

Q. Notebook: pull reported PBM E-score for Yer064c (UniProt P40041), entry AAGTCGCC
A. 0.222

Q. Notebook: pull reported PBM E-score for Yer064c (UniProt P40041), entry GCGGCGAA
A. -0.17

Q. Notebook: pull reported PBM E-score for Yer064c (UniProt P40041), entry CCGGAGTA
A. 0.0206

Q. Notebook: pull reported PBM E-score for Yer064c (UniProt P40041), entry CAAATCTC
A. 0.0434

Q. Notebook: pull reported PBM E-score for Yer064c (UniProt P40041), entry ATGCGGCG
A. -0.174

Q. Notebook: pull reported PBM E-score for Yer064c (UniProt P40041), entry CTAAGTCA
A. 0.449

Q. Notebook: pull reported PBM E-score for Yer064c (UniProt P40041), entry AGAACGTG
A. -0.217

Q. Notebook: pull reported PBM E-score for Yer064c (UniProt P40041), entry CGAGATTC
A. 0.0578

Q. Notebook: pull reported PBM E-score for Yer064c (UniProt P40041), entry CGCACATC
A. 0.00301

Q. Notebook: pull reported PBM E-score for Yer064c (UniProt P40041), entry GACTAACA
A. 0.449

Q. Notebook: pull reported PBM E-score for Yer064c (UniProt P40041), entry AAGGAAGG
A. -0.0955

Q. Notebook: pull reported PBM E-score for Yer064c (UniProt P40041), entry TAGGGCCA
A. -0.307

Q. Notebook: pull reported PBM E-score for Yer064c (UniProt P40041), entry ATGATTTC
A. 0.403

Q. Notebook: pull reported PBM E-score for Yer064c (UniProt P40041), entry CATCTACG
A. 0.104

Q. Notebook: pull reported PBM E-score for Yer064c (UniProt P40041), entry ATGATTTA
A. 0.415

Q. Notebook: pull reported PBM E-score for Yer064c (UniProt P40041), entry CGTCATGC
A. -0.173

Q. Notebook: pull reported PBM E-score for Yer064c (UniProt P40041), entry CGTCATGA
A. 0.253

Q. Notebook: pull reported PBM E-score for Yer064c (UniProt P40041), entry CCAGAGGC
A. -0.335

Q. Notebook: pull reported PBM E-score for Yer064c (UniProt P40041), entry GACTAGCA
A. 0.374

Q. Notebook: pull reported PBM E-score for Yer064c (UniProt P40041), entry TAGTCGAA
A. 0.243

Q. Notebook: pull reported PBM E-score for Yer064c (UniProt P40041), entry AAGTTTCT
A. 0.0369

Q. Notebook: pull reported PBM E-score for Yer064c (UniProt P40041), entry ATTCTCTG
A. 0.0149

Q. Notebook: pull reported PBM E-score for Yer064c (UniProt P40041), entry AACTGTTA
A. 0.0274

Q. Notebook: pull reported PBM E-score for Yer064c (UniProt P40041), entry GTAAGTAA
A. 0.0006

Q. Notebook: pull reported PBM E-score for Yer064c (UniProt P40041), entry GACTAGGC
A. 0.297

Q. Notebook: pull reported PBM E-score for Yer064c (UniProt P40041), entry ATAAGTCC
A. 0.161

Q. Notebook: pull reported PBM E-score for Yer064c (UniProt P40041), entry AATATTGT
A. 0.0413

Q. Notebook: pull reported PBM E-score for Yer064c (UniProt P40041), entry CGAATCAC
A. 0.4

Q. Notebook: pull reported PBM E-score for Yer064c (UniProt P40041), entry ATTCATGG
A. 0.224

Q. Notebook: pull reported PBM E-score for Yer064c (UniProt P40041), entry ATAAGTCA
A. 0.438

Q. Notebook: pull reported PBM E-score for Yer064c (UniProt P40041), entry ACCTCCCT
A. -0.107

Q. Notebook: pull reported PBM E-score for Yer064c (UniProt P40041), entry AGGATTTC
A. -0.125

Q. Notebook: pull reported PBM E-score for Yer064c (UniProt P40041), entry CTTAACCA
A. 0.197

Q. Notebook: pull reported PBM E-score for Yer064c (UniProt P40041), entry AGCTACCA
A. 0.0223

Q. Notebook: pull reported PBM E-score for Yer064c (UniProt P40041), entry AAAAACCT
A. 0.111

Q. Notebook: pull reported PBM E-score for Yer064c (UniProt P40041), entry CGAAATCA
A. 0.309

Q. Notebook: pull reported PBM E-score for Yer064c (UniProt P40041), entry ATTGGATC
A. -0.0186

Q. Notebook: pull reported PBM E-score for Yer064c (UniProt P40041), entry CGAGAGTA
A. 0.0908

Q. Notebook: pull reported PBM E-score for Yer064c (UniProt P40041), entry TAGCCACA
A. 0.14

Q. Notebook: pull reported PBM E-score for Yer064c (UniProt P40041), entry AACTAACC
A. 0.0831

Q. Notebook: pull reported PBM E-score for Yer064c (UniProt P40041), entry CGATCGTA
A. 0.05

Q. Notebook: pull reported PBM E-score for Yer064c (UniProt P40041), entry TACTAGGA
A. 0.0896

Q. Notebook: pull reported PBM E-score for Yer064c (UniProt P40041), entry CTAAGTCC
A. 0.148

Q. Notebook: pull reported PBM E-score for Yer064c (UniProt P40041), entry CGAGAGAC
A. 0.0137

Q. Notebook: pull reported PBM E-score for Yer064c (UniProt P40041), entry AGAGAGTC
A. 0.409

Q. Notebook: pull reported PBM E-score for Yer064c (UniProt P40041), entry GATTAATC
A. 0.391

Q. Notebook: pull reported PBM E-score for Yer064c (UniProt P40041), entry AGTCATGG
A. 0.479

Q. Notebook: pull reported PBM E-score for Yer064c (UniProt P40041), entry AAACGGGG
A. -0.128

Q. Notebook: pull reported PBM E-score for Yer064c (UniProt P40041), entry CACTAAGA
A. 0.119

Q. Notebook: pull reported PBM E-score for Yer064c (UniProt P40041), entry GACTAACC
A. 0.44

Q. Notebook: pull reported PBM E-score for Yer064c (UniProt P40041), entry CACTTAGA
A. 0.0684

Q. Notebook: pull reported PBM E-score for Yer064c (UniProt P40041), entry CGTACGTC
A. -0.241

Q. Notebook: pull reported PBM E-score for Yer064c (UniProt P40041), entry CCAATCAC
A. 0.182

Q. Notebook: pull reported PBM E-score for Yer064c (UniProt P40041), entry CTCAAGGC
A. 0.104

Q. Notebook: pull reported PBM E-score for Yer064c (UniProt P40041), entry GCGATCCA
A. -0.145

Q. Notebook: pull reported PBM E-score for Yer064c (UniProt P40041), entry AGAGAGTG
A. -0.104

Q. Notebook: pull reported PBM E-score for Yer064c (UniProt P40041), entry CAAACGCA
A. -0.0486

Q. Notebook: pull reported PBM E-score for Yer064c (UniProt P40041), entry GAGGCGGA
A. -0.0783

Q. Notebook: pull reported PBM E-score for Yer064c (UniProt P40041), entry ATAAGTCG
A. 0.223

Q. Notebook: pull reported PBM E-score for Yer064c (UniProt P40041), entry GATTAACC
A. 0.294

Q. Notebook: pull reported PBM E-score for Yer064c (UniProt P40041), entry ACAGAGTC
A. 0.37

Q. Notebook: pull reported PBM E-score for Yer064c (UniProt P40041), entry GAAGCCTA
A. -0.143

Q. Notebook: pull reported PBM E-score for Yer064c (UniProt P40041), entry CACTAACA
A. 0.0977

Q. Notebook: pull reported PBM E-score for Yer064c (UniProt P40041), entry ATTCATGC
A. 0.137

Q. Notebook: pull reported PBM E-score for Yer064c (UniProt P40041), entry ACGGCGGA
A. -0.0257

Q. Notebook: pull reported PBM E-score for Yer064c (UniProt P40041), entry GAGTCGCA
A. 0.438

Q. Notebook: pull reported PBM E-score for Yer064c (UniProt P40041), entry CCTCTGTA
A. -0.108

Q. Notebook: pull reported PBM E-score for Yer064c (UniProt P40041), entry CCAGAGTC
A. 0.38

Q. Notebook: pull reported PBM E-score for Yer064c (UniProt P40041), entry CGAATCAG
A. 0.384

Q. Notebook: pull reported PBM E-score for Yer064c (UniProt P40041), entry TACTAAGA
A. 0.113

Q. Notebook: pull reported PBM E-score for Yer064c (UniProt P40041), entry GCGCGACA
A. -0.0346

Q. Notebook: pull reported PBM E-score for Yer064c (UniProt P40041), entry ATGGGGAC
A. -0.14

Q. Notebook: pull reported PBM E-score for Yer064c (UniProt P40041), entry ATGGGGCG
A. -0.111

Q. Notebook: pull reported PBM E-score for Yer064c (UniProt P40041), entry AAGGGAGA
A. 0.039

Q. Notebook: pull reported PBM E-score for Yer064c (UniProt P40041), entry TATTAACA
A. 0.0799

Q. Notebook: pull reported PBM E-score for Yer064c (UniProt P40041), entry ACGGAGTA
A. -0.0195

Q. Notebook: pull reported PBM E-score for Yer064c (UniProt P40041), entry CCGGAGGC
A. -0.154

Q. Notebook: pull reported PBM E-score for Yer064c (UniProt P40041), entry CCAGTCGA
A. 0.00412

Q. Notebook: pull reported PBM E-score for Yer064c (UniProt P40041), entry AAGATTTA
A. 0.136

Q. Notebook: pull reported PBM E-score for Yer064c (UniProt P40041), entry TGTTGAAA
A. 0.0239

Q. Notebook: pull reported PBM E-score for Yer064c (UniProt P40041), entry GACTAAGA
A. 0.444

Q. Notebook: pull reported PBM E-score for Yer064c (UniProt P40041), entry GCGGAGTA
A. -0.0756

Q. Notebook: pull reported PBM E-score for Yer064c (UniProt P40041), entry AACTAGCA
A. -0.00106

Q. Notebook: pull reported PBM E-score for Yer064c (UniProt P40041), entry CCTTTCTA
A. -0.251
